Reported inhibition zone (IZ) by item:
- System: Escherichia coli
- test-name: Antibacterial activity against Escherichia coli after 16 to 18 hrs by serial dilution method
- Format: functional

Some entries whose results are on file:
Short answer on Escherichia coli for `Cc1ccc(OCc2ccccc2-c2nnc(SCc3ccc(Cl)cc3Cl)o2)cc1` , inhibition zone (IZ): 16 mm

Short answer on Escherichia coli for `Cc1ccccc1OCc1ccccc1-c1nnc(-c2ccccc2)o1` , inhibition zone (IZ): <10 mm

Short answer on Escherichia coli for `Cc1cccc(OCc2ccccc2-c2nnc(-c3cc(C)cc(C)c3)o2)c1` , inhibition zone (IZ): 11 mm

Short answer on Escherichia coli for `CCSc1nnc(-c2ccccc2COc2ccccc2C)o1` , inhibition zone (IZ): <10 mm

Short answer on Escherichia coli for `Cc1ccc(OCc2ccccc2-c2nnc(-c3cccc(Br)c3)o2)cc1` , inhibition zone (IZ): <10 mm

Others:
Short answer on Escherichia coli for `Cc1ccccc1OCc1ccccc1-c1nnc(SCc2ccc(Cl)cc2)o1` , inhibition zone (IZ): 11 mm

Short answer on Escherichia coli for `Cc1ccc(OCc2ccccc2-c2nnc(-c3cccc4ncccc34)o2)cc1` , inhibition zone (IZ): <10 mm

Short answer on Escherichia coli for `Cc1ccccc1OCc1ccccc1-c1nnc(-c2cccnc2Cl)o1` , inhibition zone (IZ): 11 mm

Short answer on Escherichia coli for `CCSc1nnc(-c2ccccc2COc2ccc(C)cc2)o1` , inhibition zone (IZ): <10 mm

Short answer on Escherichia coli for `Cc1ccc(OCc2ccccc2-c2nnc(-c3ccc(Cl)cc3)o2)cc1` , inhibition zone (IZ): <10 mm

Short answer on Escherichia coli for `COc1cc(-c2nnc(-c3ccccc3COc3ccccc3C)o2)cc(OC)c1OC` , inhibition zone (IZ): 16 mm

----------
Reported MIC by item:
- Test system: Trichophyton mentagrophytes
- test-name: Antifungal activity against Trichophyton mentagrophytes after 16 to 18 hrs by serial dilution method
- Format: functional
- experimental-conditions: Trichophyton mentagrophytes
Your answer should be a number followed by the unit of measure.

Looking up `Clc1ccc(OCc2ccccc2-c2nnc(-c3ccccc3)o2)cc1` , I see its MIC listed as 25 µg/mL

Looking up `Cc1ccc(OCc2ccccc2-c2nn(CNc3cc(C)ccc3Cl)c(=S)o2)cc1` , I see its MIC listed as 25 µg/mL

Looking up `Cc1ccc(OCc2ccccc2-c2nnc(-c3ccccc3)o2)cc1` , I see its MIC listed as 25 µg/mL

Looking up `Cc1cccc(OCc2ccccc2-c2nn(CNc3ccc(Cl)cc3C(=O)C(F)(F)F)c(=S)o2)c1` , I see its MIC listed as 25 µg/mL

Looking up `Cc1cc(C)cc(-c2nnc(-c3ccccc3COc3ccccc3C)o2)c1` , I see its MIC listed as 12.5 µg/mL

Looking up `Cc1ccccc1OCc1ccccc1-c1nn(CN2CCOCC2)c(=S)o1` , I see its MIC listed as 12.5 µg/mL

Others:
Looking up `Cc1ccc(OCc2ccccc2-c2nnc(-c3cccc4ncccc34)o2)cc1` , I see its MIC listed as 25 µg/mL

Looking up `Cc1cccc(OCc2ccccc2-c2nn(CN3CCOCC3)c(=S)o2)c1` , I see its MIC listed as 12.5 µg/mL

Looking up `Fc1ccccc1-c1nnc(-c2ccccc2COc2ccc(Cl)cc2)o1` , I see its MIC listed as 6.25 µg/mL

Looking up `Cc1ccccc1OCc1ccccc1-c1nn(CNc2cccc(C(F)(F)F)c2)c(=S)o1` , I see its MIC listed as 6.25 µg/mL

Looking up `Clc1ccc(OCc2ccccc2-c2nnc(SCc3ccc(Cl)cc3Cl)o2)cc1` , I see its MIC listed as 6.25 µg/mL

----------
- Tested on: Aspergillus fumigatus
- test-name: Antifungal activity against Aspergillus fumigatus after 16 to 18 hrs by serial dilution method
- Assay type: functional
- experimental-conditions: Aspergillus fumigatus
quantity-name: MIC (µg/mL)
Return type: number; implicit unit µg/mL.

Short answer on Aspergillus fumigatus for `S=c1oc(-c2ccccc2COc2ccc(Cl)cc2)nn1CN1CCOCC1` , MIC: 12.5

Short answer on Aspergillus fumigatus for `Cc1ccccc1OCc1ccccc1-c1nn(CNc2ccc(Cl)cc2C(=O)C(F)(F)F)c(=S)o1` , MIC: 25

Short answer on Aspergillus fumigatus for `CCSc1nnc(-c2ccccc2COc2cccc(C)c2)o1` , MIC: 25

Short answer on Aspergillus fumigatus for `Cc1ccc(OCc2ccccc2-c2nnc(SCc3cccc(C)c3)o2)cc1` , MIC: 12.5

Short answer on Aspergillus fumigatus for `Cc1ccc(OCc2ccccc2-c2nn(CNc3cccc(C(F)(F)F)c3)c(=S)o2)cc1` , MIC: 6.25

Others:
Short answer on Aspergillus fumigatus for `Cc1ccccc1OCc1ccccc1-c1nn(CNc2cccc(C(F)(F)F)c2)c(=S)o1` , MIC: 6.25

Short answer on Aspergillus fumigatus for `Clc1ccc(OCc2ccccc2-c2nnc(-c3ccc(Cl)cc3)o2)cc1` , MIC: 25

Short answer on Aspergillus fumigatus for `Clc1ccc(OCc2ccccc2-c2nnc(SCc3ccccc3)o2)cc1` , MIC: 25

Short answer on Aspergillus fumigatus for `Cc1ccc(OCc2ccccc2-c2nnc(-c3cccc(Br)c3)o2)cc1` , MIC: 25

Short answer on Aspergillus fumigatus for `Cc1ccccc1OCc1ccccc1-c1nnc(SCc2ccc(Cl)cc2)o1` , MIC: 12.5

Short answer on Aspergillus fumigatus for `Cc1cc(C)cc(-c2nnc(-c3ccccc3COc3ccccc3C)o2)c1` , MIC: 6.25

----------
- System: Aspergillus flavus
- test-name: Antifungal activity against Aspergillus flavus after 16 to 18 hrs by serial dilution method
- Type: functional
- experimental-conditions: Aspergillus flavus
quantity-name: MIC (mg/L)
Return type: number; implicit unit mg/L.

Some entries whose results are on file:
Looking up `CCSc1nnc(-c2ccccc2COc2ccc(Cl)cc2)o1` , I see its MIC listed as 25

Looking up `Clc1ccc(OCc2ccccc2-c2nnc(SCc3ccccc3)o2)cc1` , I see its MIC listed as 25

Looking up `Cc1cccc(OCc2ccccc2-c2nn(CNc3ccc(Cl)cc3C(=O)C(F)(F)F)c(=S)o2)c1` , I see its MIC listed as 25

Others:
Looking up `Cc1cccc(OCc2ccccc2-c2nn(CN3CCOCC3)c(=S)o2)c1` , I see its MIC listed as 12.5

Looking up `Cc1ccccc1OCc1ccccc1-c1nnc(-c2ccccc2F)o1` , I see its MIC listed as 6.25

Looking up `Clc1ccc(OCc2ccccc2-c2nnc(-c3cccc4ncccc34)o2)cc1` , I see its MIC listed as 25

Looking up `Cc1cccc(CSc2nnc(-c3ccccc3COc3ccccc3C)o2)c1` , I see its MIC listed as 12.5

Looking up `O=C(c1cc(Cl)ccc1NCn1nc(-c2ccccc2COc2ccc(Cl)cc2)oc1=S)C(F)(F)F` , I see its MIC listed as 25

Looking up `Cc1cccc(OCc2ccccc2-c2nnc(SCc3ccc(Cl)cc3)o2)c1` , I see its MIC listed as 12.5

----------
- Tested on: Klebsiella pneumoniae
- test-name: Antibacterial activity against Klebsiella pneumoniae after 16 to 18 hrs by serial dilution method
- Type: functional
- experimental-conditions: Klebsiella pneumoniae
Reported MIC by item:
Return type: number; implicit unit µg/mL.

Looking up `Cc1cccc(OCc2ccccc2-c2nnc(SCc3ccccc3)o2)c1` , I see its MIC listed as 25

Looking up `Cc1ccccc1OCc1ccccc1-c1nnc(SCc2ccc(Cl)cc2)o1` , I see its MIC listed as 12.5

Looking up `Cc1cccc(OCc2ccccc2-c2nnc(-c3ccccc3F)o2)c1` , I see its MIC listed as 6.25

Looking up `O=C(c1cc(Cl)ccc1NCn1nc(-c2ccccc2COc2ccc(Cl)cc2)oc1=S)C(F)(F)F` , I see its MIC listed as 25

Others:
Looking up `FC(F)(F)c1cccc(NCn2nc(-c3ccccc3COc3ccc(Cl)cc3)oc2=S)c1` , I see its MIC listed as 6.25

----------
- System: Aspergillus fumigatus
- test-name: Antifungal activity against Aspergillus fumigatus after 16 to 18 hrs by serial dilution method
- Type: functional
- experimental-conditions: Aspergillus fumigatus
Reported MIC by item:
Return type: number; implicit unit µg/mL.

Short answer on Aspergillus fumigatus for `Cc1ccccc1OCc1ccccc1-c1nnc(-c2ccccc2)o1` , MIC: 25

Short answer on Aspergillus fumigatus for Cc1cc(C2CCCCC2)n(O)c(=O)c1.NCCO [CICLOPIROX OLAMINE] , MIC: 6.25

----------
- Tested on: Trichophyton mentagrophytes
- test-name: Antifungal activity against Trichophyton mentagrophytes after 16 to 18 hrs by serial dilution method
- Format: functional
- experimental-conditions: Trichophyton mentagrophytes
quantity-name: MIC (µg/mL)
Return type: number; implicit unit µg/mL.

Some entries whose results are on file:
Short answer on Trichophyton mentagrophytes for `Cc1cccc(OCc2ccccc2-c2nn(CNc3cc(C)ccc3Cl)c(=S)o2)c1` , MIC: 25

Short answer on Trichophyton mentagrophytes for `COc1cc(-c2nnc(-c3ccccc3COc3ccc(Cl)cc3)o2)cc(OC)c1OC` , MIC: 6.25

Short answer on Trichophyton mentagrophytes for `Cc1cccc(CSc2nnc(-c3ccccc3COc3cccc(C)c3)o2)c1` , MIC: 12.5

Short answer on Trichophyton mentagrophytes for `Cc1ccc(Cl)c(NCn2nc(-c3ccccc3COc3ccccc3C)oc2=S)c1` , MIC: 25

Short answer on Trichophyton mentagrophytes for `Clc1ccc(OCc2ccccc2-c2nnc(-c3ccc(Cl)cc3)o2)cc1` , MIC: 25

Others:
Short answer on Trichophyton mentagrophytes for `Cc1ccccc1OCc1ccccc1-c1nnc(-c2cccc(Br)c2)o1` , MIC: 25

Short answer on Trichophyton mentagrophytes for `Cc1ccccc1OCc1ccccc1-c1nnc(-c2cccc3ncccc23)o1` , MIC: 25

Short answer on Trichophyton mentagrophytes for `S=c1oc(-c2ccccc2COc2ccc(Cl)cc2)nn1CN1CCOCC1` , MIC: 12.5

Short answer on Trichophyton mentagrophytes for `Cc1cccc(CSc2nnc(-c3ccccc3COc3ccccc3C)o2)c1` , MIC: 12.5
